Target: T1, human PAR-2 (human, UniProt P55085 26-397)
T1 sequence: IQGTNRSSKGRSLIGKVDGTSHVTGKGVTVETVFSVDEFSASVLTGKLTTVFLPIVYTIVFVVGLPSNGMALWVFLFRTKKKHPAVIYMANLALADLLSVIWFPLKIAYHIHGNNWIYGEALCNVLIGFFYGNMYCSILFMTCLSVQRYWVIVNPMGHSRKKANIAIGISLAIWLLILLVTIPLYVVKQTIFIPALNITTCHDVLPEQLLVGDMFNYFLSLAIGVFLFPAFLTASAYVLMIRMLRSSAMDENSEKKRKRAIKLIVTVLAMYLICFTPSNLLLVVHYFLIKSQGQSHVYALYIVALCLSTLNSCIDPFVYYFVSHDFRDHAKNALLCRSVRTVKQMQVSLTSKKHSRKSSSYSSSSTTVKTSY
Test: cell-based or functional assay
Please go through the items and note down their IC50, PAR-2 β-arrestin cell assay.
Answers are plain numbers, in nM.

binder="Ab234 (antibody, human IgG4, V domains shown, also called Anti-PAR-2 antibody # 234) VH: EVQLVETGGGLVQPGRSLKLSCVASGFTFNNYWLYWIRQAPGKGLEWVSSINNDGGGTYYPDSVKGRFTVSRDNAENTVYLQMNSLRSEDTATYYCARDRAFIRGRFAYWGQGTLVTVSS VL: EIVLTQSPTTMAASPGEKVTLTCRASSSVIYMHWYQQRSGASPKLWIYETSKLASGVPNRFGGSGSGTSYSLTINSMETEDAATYYCQQGSYYPWTFGGGTKLELK" measured_metric="IC50, PAR-2 β-arrestin cell assay" experimental_value=4.8

Hi! Can you tell me IC50, PAR-2 β-arrestin cell assay for each of these binders?
1. Ab343 (antibody, human IgG4, V domains shown, also called Anti-PAR-2 antibody # 343) VH: EVQLVESGGGLVQPGRSLKLSCVASGFTFNNYWMSWIRQAPGKGLEWVASITNTGGRIFYPDSVKGRFTISRDNAQNTLYLQMNSLRSEDAATYYCTRDRLYYGSNWFTYWGQGTLVTVSS VL: DIQMTQSPHSLSASLGETVSIECLASEAISNYLAWYQQKPGKSPQLLIYYASSLKDGVPSRISGSGSGTQYSLKISNMQPEDEGVYYCQQGYKYPRTFGGGTKLELK
2. Ab228 (antibody, human IgG4, V domains shown) VH: EVQLVESGGGLVQPGRSLKLSCVVSGFTFNNYWMTWIRQAPGKGLEWVASITNSGGNTYYPDSVKGRFTISRDNAKSTLYLQMNSLRSEDTATYYCTRDRIIRGSTWFAYWGQGTLVTVSS VL: DIQMTQSPHSLSASLGETVSIECLASEGISNYLAWYQQKPGKSPQLLIYYASSLQDGVPSRFSGSGSGTQYSLKISNMQPEDEGVYYCHQGYKYPWTFGGGTKLELK
3. Ab392 (antibody, human IgG4, V domains shown, also called Anti-PAR-2 antibody # 392) VH: EVQLVESGGGLVQPGRSLKLSCVASGFTFNNKWMTWIRQAPGKGLEWIASITNTGGRTFYPDSVKGRFTISRDDAKSTLYLQMNSLRSEDTATYYCTRATIRRGASYFDYWGQGVMVTVSS VL: DIQMTQSPHSLSASLGEGVSIECLASEGISNYLAWFQQKPGKSPQLLIYYASSLQDGVPSRFSGSGSGTQYSLKISNMQPEDEGVYYCQQGYKYPWTFGGGTKLELK
4. Ab248 (antibody, human IgG4, V domains shown, also called Anti-PAR-2 antibody # 248) VH: QVQLKESGPGLVQPSQTLSLTCTVSGFSLTNYHVSWVRQPPGKGLEWMGIIWTGGSTAYNSLLKSRLSISRDTSKSQVFLKMNSLQTEDTATYYCARRGLYPYYFDYWGQGVMVTVSS VL: EIVLTQSPTTLAASPGEKVTITCRASSRVSNMYWYQQKSGASPKAWIYETSKLASGVPDRFSGSGSGTSYSFTISSMETEDAATYYCHQWTSTPYTFGAGTKLELK
5. Ab86 (antibody, human IgG4, V domains shown, also called Anti-PAR-2 antibody # 86) VH: EVQLVESGGGLVQPKGSLKLSCAASGFTFNTYAMHWVRQAPGKGLEWVARIRSKNVHYATYYADSVKDRFTISRDDSQNMLYLQMNNLKTEDTAMYYCVREDYYGSSYDYWGQGTTLTVSS VL: DIVMTQSHKFMSTSLGDRVSITCKASQDVGSAVAWHQQKPGQSPKVLIYWASNRHTGVPDRFTGSGSGTDFTLTISNVQSEDLADYFCQQYSSYPFTFGSGTKLEIK
6. Ab227 (antibody, human IgG4, V domains shown, also called Anti-PAR-2 antibody # 227) VH: EVQLVESGGGLVQPGRSLKLSCVASGFTFNNYWMTWIRQAPGKGLEWVASITNSGGRTYYPDSVKGRFTVSRDSAKSTLYLQMNSLRSEDTATYYCTRDRIIRGSTWFTYWGQGTLVTVSS VL: DIQMTQSPHSLSASLGETVSIECLASEGISNYLAWFQQKPGKSPQLLIYYASSLQDGVPSRFSGSGSGTQYSLKISNMQPEDEGVYYCQQGYKYPWTFGGGTELELK
7. Ab209 (antibody, human IgG4, V domains shown, also called Anti-PAR-2 antibody # 209) VH: QVQLQQPGTELVKPGASVKLSCKASGYTFTSYWMHWIKQRPGQGLEWIGNINPSTGSTNFNVKFKTKATLTVDKSSSTTYMQLNSLTSEDSAVYYCAGEAYSNYVAWFAYWGQGTLVTVSS VL: ENVLTQSPAIMSASLGEKVTMSCRASSSVNYMYWYRQKSDASPKLWIYYTSNLAPGVPTRFSGSGSGTSYSLTISSMEGEDAATYYCQQFTTSPYTFGGGTKLEIK

[18.2, 33.3, 13.7, 4.6, 9.9, 10.2, 65.5]
